The measured values listed here are drawn from ChEMBL document CHEMBL3763047.

# tgt: UniProtKB P08183
# Sequence (P08183 whole entry): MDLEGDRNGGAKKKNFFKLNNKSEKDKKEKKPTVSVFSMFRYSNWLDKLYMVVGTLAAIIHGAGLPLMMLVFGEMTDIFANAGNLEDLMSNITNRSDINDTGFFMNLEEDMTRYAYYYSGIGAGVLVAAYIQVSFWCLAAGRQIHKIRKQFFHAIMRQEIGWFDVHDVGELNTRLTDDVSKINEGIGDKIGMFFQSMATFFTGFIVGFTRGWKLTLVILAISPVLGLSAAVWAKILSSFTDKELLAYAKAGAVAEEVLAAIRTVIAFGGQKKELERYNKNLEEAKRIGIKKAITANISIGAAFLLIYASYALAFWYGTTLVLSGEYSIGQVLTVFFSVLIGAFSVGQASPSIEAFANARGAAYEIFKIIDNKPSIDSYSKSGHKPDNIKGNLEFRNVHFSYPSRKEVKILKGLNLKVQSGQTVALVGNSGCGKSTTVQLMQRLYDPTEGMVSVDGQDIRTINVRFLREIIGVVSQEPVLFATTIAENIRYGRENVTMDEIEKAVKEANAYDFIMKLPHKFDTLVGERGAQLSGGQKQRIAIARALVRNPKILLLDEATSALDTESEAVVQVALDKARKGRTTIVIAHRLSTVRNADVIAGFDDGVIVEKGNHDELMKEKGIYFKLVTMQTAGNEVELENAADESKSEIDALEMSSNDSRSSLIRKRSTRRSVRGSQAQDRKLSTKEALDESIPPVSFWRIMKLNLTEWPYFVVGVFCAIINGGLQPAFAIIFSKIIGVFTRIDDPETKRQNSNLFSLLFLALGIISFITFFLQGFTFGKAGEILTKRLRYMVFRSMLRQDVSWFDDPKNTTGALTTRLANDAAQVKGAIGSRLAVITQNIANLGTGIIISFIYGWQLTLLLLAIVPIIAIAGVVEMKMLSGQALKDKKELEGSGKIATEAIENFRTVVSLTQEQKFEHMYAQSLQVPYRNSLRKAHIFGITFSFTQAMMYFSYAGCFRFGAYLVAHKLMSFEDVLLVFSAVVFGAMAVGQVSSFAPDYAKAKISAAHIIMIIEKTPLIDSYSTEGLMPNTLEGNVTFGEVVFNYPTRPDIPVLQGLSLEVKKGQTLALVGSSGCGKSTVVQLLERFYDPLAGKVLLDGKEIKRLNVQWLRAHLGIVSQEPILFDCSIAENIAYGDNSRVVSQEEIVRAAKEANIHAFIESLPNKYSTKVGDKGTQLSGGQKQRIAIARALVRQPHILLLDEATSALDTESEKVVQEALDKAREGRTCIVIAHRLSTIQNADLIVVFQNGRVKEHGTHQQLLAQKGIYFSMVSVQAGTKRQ
# method.summary: Inhibition of ABCB1 in human KBV1 cells assessed as inhibition of calcein-AM efflux at 1 uM relative to tariquidar
# Type: cell-based
# settings: probe calcein-AM, read-out: Imax
Decision: inhibition at 1 µM >= 30% yields true, all other cases yield false.

COc1cc(OC)c2c(=O)cc(N3CCN(Cc4ccc(F)c(F)c4)CC3)oc2c1: false

Quick check: does `COc1cc(OC)c2c(=O)cc(C(=O)N3CCN(CCc4ccc([N+](=O)[O-])cc4)CC3)oc2c1` have inhibition at 1 µM greater than or equal to 30%?
true

###

# tgt: MRP1 (ABCC1) (Homo sapiens, UniProt P33527)
# Sequence (P33527 whole entry): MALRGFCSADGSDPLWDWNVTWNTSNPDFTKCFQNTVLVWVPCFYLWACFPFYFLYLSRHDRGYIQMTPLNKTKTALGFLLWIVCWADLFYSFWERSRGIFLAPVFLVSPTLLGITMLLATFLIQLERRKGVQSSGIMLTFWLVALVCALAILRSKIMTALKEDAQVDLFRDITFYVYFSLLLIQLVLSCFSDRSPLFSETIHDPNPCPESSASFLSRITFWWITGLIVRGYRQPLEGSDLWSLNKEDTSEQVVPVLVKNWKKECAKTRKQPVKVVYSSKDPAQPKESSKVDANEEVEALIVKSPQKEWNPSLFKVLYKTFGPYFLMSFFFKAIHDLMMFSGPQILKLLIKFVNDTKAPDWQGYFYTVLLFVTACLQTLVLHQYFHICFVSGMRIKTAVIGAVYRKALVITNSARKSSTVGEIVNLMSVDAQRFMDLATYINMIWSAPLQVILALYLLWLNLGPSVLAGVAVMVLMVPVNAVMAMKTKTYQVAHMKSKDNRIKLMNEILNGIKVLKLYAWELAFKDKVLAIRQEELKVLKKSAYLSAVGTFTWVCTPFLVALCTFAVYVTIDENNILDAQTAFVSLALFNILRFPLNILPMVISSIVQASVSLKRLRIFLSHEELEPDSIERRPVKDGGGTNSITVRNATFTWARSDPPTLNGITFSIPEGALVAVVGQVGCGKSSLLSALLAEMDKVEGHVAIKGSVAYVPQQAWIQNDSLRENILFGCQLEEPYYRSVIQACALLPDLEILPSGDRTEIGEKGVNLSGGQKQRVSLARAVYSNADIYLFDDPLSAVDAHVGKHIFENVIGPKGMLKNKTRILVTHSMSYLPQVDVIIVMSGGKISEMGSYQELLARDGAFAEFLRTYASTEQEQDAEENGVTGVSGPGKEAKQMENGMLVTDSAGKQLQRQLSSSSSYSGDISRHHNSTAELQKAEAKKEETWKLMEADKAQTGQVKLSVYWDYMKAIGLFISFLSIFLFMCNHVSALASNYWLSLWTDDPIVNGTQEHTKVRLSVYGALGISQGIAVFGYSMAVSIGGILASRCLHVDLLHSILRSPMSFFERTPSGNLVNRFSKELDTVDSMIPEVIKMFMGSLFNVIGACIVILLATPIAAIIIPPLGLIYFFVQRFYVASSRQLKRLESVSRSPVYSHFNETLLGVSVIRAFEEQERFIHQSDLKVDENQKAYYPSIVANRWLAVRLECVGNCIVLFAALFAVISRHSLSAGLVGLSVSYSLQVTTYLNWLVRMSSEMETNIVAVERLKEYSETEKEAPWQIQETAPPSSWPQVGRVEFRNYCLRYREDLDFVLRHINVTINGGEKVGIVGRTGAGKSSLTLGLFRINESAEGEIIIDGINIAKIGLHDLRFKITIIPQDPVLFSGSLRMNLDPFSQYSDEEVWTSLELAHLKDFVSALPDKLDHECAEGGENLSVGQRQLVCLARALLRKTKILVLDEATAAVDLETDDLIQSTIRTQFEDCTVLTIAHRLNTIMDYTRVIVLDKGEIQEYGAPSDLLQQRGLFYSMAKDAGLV
# method.summary: Inhibition of human MRP1 expressed in MDCK2 cells assessed as inhibition of calcein-AM efflux at 30 uM relative to reversan
# Type: cell-based, MDCK-II
# settings: MDCK2 cells expressing human MRP1, probe calcein-AM, read-out: Imax
Would you mind telling me the reported inhibition at 30 µM of each entry?
Numbers only, in %.

Sample records with inhibition at 30 µM:
COc1cc(OC)c2c(=O)cc(C(=O)N3CCN(CCc4ccc([N+](=O)[O-])cc4)CC3)oc2c1: 139
COc1cc(OC)c2c(=O)cc(N3CCN(Cc4ccccc4[N+](=O)[O-])CC3)oc2c1: 68.8

For every item below, please supply its inhibition at 30 µM.
1. COc1cc(OC)c2c(=O)cc(N3CCN(Cc4ccc(SC(F)(F)F)cc4)CC3)oc2c1
2. COC(=O)c1ccc(CN2CCN(c3cc(=O)c4c(OC)cc(OC)cc4o3)CC2)cc1
3. COc1cc(OC)c2c(=O)cc(N3CCN(Cc4ccc5nonc5c4)CC3)oc2c1

[136, 118, 120]

For every item below, please supply its inhibition at 30 µM.
1. COc1cc(OC)c2c(=O)cc(N3CCN(C(=O)c4ccc([N+](=O)[O-])cc4)CC3)oc2c1
2. COc1cc(OC)c2c(=O)cc(N3CCN(c4ccc([N+](=O)[O-])cc4)CC3)oc2c1
3. COc1cc(OC)c2c(=O)cc(N3CCN(Cc4ccc(C#N)cc4)CC3)oc2c1
4. COc1cc(OC)c2c(=O)cc(NCCCN3CCOCC3)oc2c1
5. COc1cc(OC)c2c(=O)cc(N3CCN(CCc4ccc([N+](=O)[O-])cc4)CC3)oc2c1
6. COc1cc(OC)c2c(=O)cc(C(=O)N3CCN(Cc4ccc([N+](=O)[O-])cc4)CC3)oc2c1
7. COc1cc(O)c2c(=O)cc(C(=O)N3CCN(Cc4ccccc4[N+](=O)[O-])CC3)oc2c1

[19.7, 64.1, 115, 14, 118, 73.1, 68.8]

###

# tgt: ABCG2 (BCRP) (Homo sapiens, UniProt Q9UNQ0)
# Sequence (Q9UNQ0 whole entry): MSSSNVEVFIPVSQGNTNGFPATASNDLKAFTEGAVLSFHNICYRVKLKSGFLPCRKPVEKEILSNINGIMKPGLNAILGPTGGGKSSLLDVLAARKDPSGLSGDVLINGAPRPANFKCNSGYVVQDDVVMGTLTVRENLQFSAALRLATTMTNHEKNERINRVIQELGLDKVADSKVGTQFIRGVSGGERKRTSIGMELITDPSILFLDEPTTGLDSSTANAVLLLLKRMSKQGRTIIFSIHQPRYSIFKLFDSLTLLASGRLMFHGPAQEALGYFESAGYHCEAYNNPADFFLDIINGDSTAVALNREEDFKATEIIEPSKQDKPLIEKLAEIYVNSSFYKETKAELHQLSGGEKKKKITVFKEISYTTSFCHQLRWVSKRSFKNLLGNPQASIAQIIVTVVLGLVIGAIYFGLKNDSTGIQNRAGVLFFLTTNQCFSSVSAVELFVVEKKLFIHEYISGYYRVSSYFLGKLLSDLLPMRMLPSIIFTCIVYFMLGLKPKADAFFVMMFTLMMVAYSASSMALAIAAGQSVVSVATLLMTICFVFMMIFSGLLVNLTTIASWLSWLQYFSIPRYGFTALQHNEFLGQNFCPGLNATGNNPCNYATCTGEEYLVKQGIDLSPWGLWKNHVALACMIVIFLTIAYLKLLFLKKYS
# method.summary: Inhibition of ABCG2 in human MCF7/Topo cells at 10 uM by Hoechst 33342 assay relative to fumitremorgin C
# Format: cell-based
# settings: probe Hoechst 33342, read-out: Imax
Would you mind telling me the reported Emax at 10 µM of each entry?
One number for each entry, in %.

COc1cc(OC)c2c(=O)cc(N3CCN(Cc4ccc(C#N)cc4)CC3)oc2c1: 59.1

For every item below, please supply its Emax at 10 µM.
1. COc1cc(OC)c2c(=O)cc(N3CCN(c4ccc([N+](=O)[O-])cc4)CC3)oc2c1
2. COc1ccc(CCNC(=O)c2cc(=O)c3c(OCc4ccccc4)cccc3o2)cc1OC

[22.6, 108]
